# experimentalTarget: Geranylgeranyl transferase type I (Homo sapiens, UniProt P49354+P53609)
# testName: In vitro inhibition of Geranylgeranyl protein transferase I
metricName: IC50 (nM)

In the examples that follow, each entry is paired with its recorded IC50.
compound	valueObserved
CCC(C(=O)NOC/C=C(\C)CC/C=C(\C)CC/C=C(\C)CCC=C(C)C)P(=O)(O)O (stereo unspecified)	146
CC(C)=CCC/C(C)=C/CC/C(C)=C/CC/C(C)=C/CNC(=O)CP(=O)(O)O	275
CC(C)=CCC/C(C)=C/CC/C(C)=C/CC/C(C)=C/CNC(=O)C(C)P(=O)(O)O (stereo unspecified)	111

P: CC(C)=CCC/C(C)=C/CC/C(C)=C/CC/C(C)=C/CONC(=O)C(C)P(=O)(O)O (stereo unspecified)
Q: CCC(C(=O)NC/C=C(\C)CC/C=C(\C)CC/C=C(\C)CCC=C(C)C)P(=O)(O)O (stereo unspecified)
R: CC(C)=CCC/C(C)=C/CC/C(C)=C/CC/C(C)=C/CONC(=O)CP(=O)(O)O
IN: Rank the items in ascending order with respect to IC50. Present the labels in the sequence the task asks for.
OUT: R, P, Q
(R: 66 nM, P: 151 nM, Q: 566 nM)

###

# experimentalTarget: Protein farnesyl/geranylgeranyl transferase (Homo sapiens) (UniProt P49354+P49356+P53609)
# testName: Selectivity for Geranylgeranyl protein transferase I compared to farnesyl protein transferase
# Type: protein-complex assay
# Selectivity values compiled below

For orientation, consider the following solved cases.
molecule	Selectivity
CC(C)=CCC/C(C)=C/CC/C(C)=C/CC/C(C)=C/CONC(=O)C(C)P(=O)(O)O (stereo not given)	> 66
CC(C)=CCC/C(C)=C/CC/C(C)=C/CC/C(C)=C/CNC(=O)C(C)P(=O)(O)O (stereo not given)	> 90
CCC(C(=O)NOC/C=C(\C)CC/C=C(\C)CC/C=C(\C)CCC=C(C)C)P(=O)(O)O (stereo not given)	> 68
CCC(C(=O)NC/C=C(\C)CC/C=C(\C)CC/C=C(\C)CCC=C(C)C)P(=O)(O)O (stereo not given)	> 18

Now consider a different molecule.
Measured Selectivity of "CC(C)=CCC/C(C)=C/CC/C(C)=C/CC/C(C)=C/CNC(=O)CP(=O)(O)O" : 18

###

# experimentalTarget: Protein farnesyltransferase (Homo sapiens, UniProt P49354+P49356)
# testName: In vitro inhibition of farnesyl protein transferase
pIC50: −log10 of the molar value.
Each entry below carries its reported pIC50.

molecule	pIC50
CC(C)=CCC/C(C)=C/CC/C(C)=C/CC/C(C)=C/CONC(=O)C(C)P(=O)(O)O (stereo not given)	< 5.00
CCC(C(=O)NOC/C=C(\C)CC/C=C(\C)CC/C=C(\C)CCC=C(C)C)P(=O)(O)O (stereo not given)	< 5.00

"CC(C)=CCC/C(C)=C/CC/C(C)=C/CC/C(C)=C/CNC(=O)CP(=O)(O)O" yielded pIC50 of 5.30

pIC50 reported for this molecule CCC(C(=O)NC/C=C(\C)CC/C=C(\C)CC/C=C(\C)CCC=C(C)C)P(=O)(O)O (stereo not given) : < 5.00

According to the records, this molecule CC(C)=CCC/C(C)=C/CC/C(C)=C/CC/C(C)=C/CNC(=O)C(C)P(=O)(O)O (stereo not given) displays pIC50 of < 5.00

Provenance of the data: ChEMBL document CHEMBL1136489
